Target: recombinant EphB4 (Homo sapiens)
Test: biochemical
Conditions: EphB4 enzyme assay Mean IC50 value, Method of compound preparation: Genesis (aqueous compound preparation); * = tested once only
OBSERVATION_TYPE: pIC50
When answering, recall that pIC50 equals minus log10 of the concentration in mol/L, and write that number alone.

So what's the measured pIC50 for this one? "Cc1cc(N(C)c2ccnc(Nc3cc(N4CCOCC4)cc(N4CCOCC4)c3)n2)cnc1Cl"
6.78

I have this compound here, "COc1cc(N(C)c2ccnc(Nc3cc(N4CCOCC4)cc(N4CCOCC4)c3)n2)cnc1Cl" , and I need its recorded pIC50.
6.97

For the compound shown here, "CN(c1cccc(Cl)n1)c1ccnc(Nc2cc(N3CCOCC3)cc(N3CCOCC3)c2)n1" , give the reported pIC50.
6.21

Could you tell me which pIC50 is on file for "Cc1cnc(C)c(N(C)c2ccnc(Nc3cc(N4CCOCC4)cc(N4CCOCC4)c3)n2)c1" ?
6.42

I would be grateful if you could share the reported pIC50 for "Cc1ccc(N(C)c2ccnc(Nc3cc(N4CCOCC4)cc(N4CCOCC4)c3)n2)cn1" .
6.94

Param item = "Cc1ccc(N(C)c2ccnc(Nc3cc(N4CCOCC4)cc(N4CCOCC4)c3)n2)nc1" ; retrieve measured pIC50.
6.60

What value of pIC50 has been recorded for this entry: "CN(c1cncc(Cl)c1)c1ccnc(Nc2cc(N3CCOCC3)cc(N3CCOCC3)c2)n1"
7.31

Could you tell me which pIC50 is on file for "CN(c1ccc(Cl)nc1)c1ccnc(Nc2cc(N3CCOCC3)cc(N3CCOCC3)c2)n1" ?
6.70

* * *

Target: EphB4 (Homo sapiens, UniProt P54760)
Construct: to generate full-length EphB4 containing a Myc-His tag at the C-terminus
Sequence (P54760 16-987): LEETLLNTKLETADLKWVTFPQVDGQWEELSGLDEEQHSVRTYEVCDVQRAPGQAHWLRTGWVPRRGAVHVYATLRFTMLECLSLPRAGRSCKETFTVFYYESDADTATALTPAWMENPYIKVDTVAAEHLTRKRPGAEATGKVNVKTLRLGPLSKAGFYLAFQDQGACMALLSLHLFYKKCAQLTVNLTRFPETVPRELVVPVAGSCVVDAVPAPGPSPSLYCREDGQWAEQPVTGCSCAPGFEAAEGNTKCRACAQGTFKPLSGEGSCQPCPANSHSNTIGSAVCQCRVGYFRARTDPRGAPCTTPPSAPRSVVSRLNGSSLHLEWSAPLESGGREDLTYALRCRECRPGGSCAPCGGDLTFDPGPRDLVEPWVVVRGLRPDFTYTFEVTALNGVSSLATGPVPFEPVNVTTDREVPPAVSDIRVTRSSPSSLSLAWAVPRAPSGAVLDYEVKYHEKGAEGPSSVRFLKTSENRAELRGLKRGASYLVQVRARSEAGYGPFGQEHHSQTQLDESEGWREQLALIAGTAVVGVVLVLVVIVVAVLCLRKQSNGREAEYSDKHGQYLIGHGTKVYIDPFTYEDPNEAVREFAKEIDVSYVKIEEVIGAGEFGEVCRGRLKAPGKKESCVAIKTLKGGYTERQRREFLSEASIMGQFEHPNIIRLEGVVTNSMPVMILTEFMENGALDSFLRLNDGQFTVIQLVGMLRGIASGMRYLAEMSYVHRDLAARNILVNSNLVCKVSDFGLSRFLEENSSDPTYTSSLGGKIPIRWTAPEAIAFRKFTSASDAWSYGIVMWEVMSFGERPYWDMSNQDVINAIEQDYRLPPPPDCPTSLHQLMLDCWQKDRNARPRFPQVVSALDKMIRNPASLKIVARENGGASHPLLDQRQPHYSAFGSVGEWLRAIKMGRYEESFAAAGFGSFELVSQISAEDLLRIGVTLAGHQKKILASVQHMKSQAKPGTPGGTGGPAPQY
Assay: In vitro EphB4 cell assay (EphB4 phosphorylation ELISA in EphB4-CHO cells)
OBSERVATION_TYPE: IC50 (nM)
Output spec: scalar in nM, unitless text.

Entry "CN(c1cc(Cl)ccn1)c1ccnc(Nc2cc(N3CCOCC3)cc(N3CCOCC3)c2)n1" : reported IC50 = ?
197
